B1: RHOBTB3 (parent)
chain: VSHVFMLLFNVKSPTDIQDSSIIR

variants of: B1; assay: protein stability index of a GFP-peptide fusion (GPS, HEK-293T) (PSI 1-6); higher = more stable; details: c terminus: a fixed tail appended;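 note: lentivirally expressed fusions sorted by FACS into six bins by GFP to DsRed ratio, PSI derived from sequencing read proportions per bin multiplied by bin number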
QUANTITY MEASURED: protein stability index
Number only, please.

Below: 10 variants and their reported protein stability index.
# CHANGE, protein stability index
records = [
    ("K12A", 5.33),
    ("P14G", 4.07),
    ("H3D", 2.38),
    ("L7M", 2.37),
    ("V11E", 2.08),
    ("I23V", 2.75),
    ("S20H", 2.49),
    ("L7R", 2.4),
    ("S21V", 2.27),
    ("P14S", 3.49),
]

(Q) Item under review: H3M . Reported protein stability index?
(A) 1.78

(Q) Item under review: S2G . Reported protein stability index?
(A) 2.58

(Q) Item under review: K12C . Reported protein stability index?
(A) 1.55

(Q) Item under review: Q18T . Reported protein stability index?
(A) 2.57

(Q) Item under review: K12T . Reported protein stability index?
(A) 1.98

(Q) Item under review: L7H . Reported protein stability index?
(A) 3.82

(Q) Item under review: L7I . Reported protein stability index?
(A) 2.99

(Q) Item under review: P14D . Reported protein stability index?
(A) 2.34

(Q) Item under review: L7A . Reported protein stability index?
(A) 1.74
